Molecular target: Rattus norvegicus wild-type β-arrestin2 (Rattus norvegicus, UniProt P29067 1-410)
Sequence (P29067 whole entry): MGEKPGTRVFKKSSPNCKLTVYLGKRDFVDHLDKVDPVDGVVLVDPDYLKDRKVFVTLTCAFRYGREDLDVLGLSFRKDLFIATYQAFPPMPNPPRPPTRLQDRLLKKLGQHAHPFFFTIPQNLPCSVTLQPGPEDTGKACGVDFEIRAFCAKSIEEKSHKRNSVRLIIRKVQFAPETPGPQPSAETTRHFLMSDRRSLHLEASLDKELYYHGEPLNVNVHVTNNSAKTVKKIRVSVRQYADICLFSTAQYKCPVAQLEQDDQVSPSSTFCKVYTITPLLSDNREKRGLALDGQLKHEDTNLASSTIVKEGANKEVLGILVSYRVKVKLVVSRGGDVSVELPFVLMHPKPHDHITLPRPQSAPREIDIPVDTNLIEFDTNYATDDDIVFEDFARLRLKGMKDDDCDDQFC
Experiment: ITC; site II (KD2)
pKd: −log10 of the molar value. Square brackets hold non-standard residues; d marks the D form. Ends that are not written are not given here. pT = C[C@@H](OP(=O)(O)O)[C@H](N)C(=O)O; pS = N[C@@H](COP(=O)(O)O)C(=O)O
value_type: pKd

binder: ASRV[pS]E[pT]EY[pS]ALEQ [C7pp2, phosphopeptide from the carboxyl terminus of CXCR7 (residues 346-359)]
value_type: pKd
reported_measurement: 5.48
